Attribution: patent US12098145B2

Catalogue of EC50 values
test-system: TRPML1 (Homo sapiens, UniProt Q9GZU1)
Construct: expressed in transfected cells; host or cells: HEK T-REx cells stably expressing GCaMP6f and TRPML1
Sequence (Q9GZU1 whole entry): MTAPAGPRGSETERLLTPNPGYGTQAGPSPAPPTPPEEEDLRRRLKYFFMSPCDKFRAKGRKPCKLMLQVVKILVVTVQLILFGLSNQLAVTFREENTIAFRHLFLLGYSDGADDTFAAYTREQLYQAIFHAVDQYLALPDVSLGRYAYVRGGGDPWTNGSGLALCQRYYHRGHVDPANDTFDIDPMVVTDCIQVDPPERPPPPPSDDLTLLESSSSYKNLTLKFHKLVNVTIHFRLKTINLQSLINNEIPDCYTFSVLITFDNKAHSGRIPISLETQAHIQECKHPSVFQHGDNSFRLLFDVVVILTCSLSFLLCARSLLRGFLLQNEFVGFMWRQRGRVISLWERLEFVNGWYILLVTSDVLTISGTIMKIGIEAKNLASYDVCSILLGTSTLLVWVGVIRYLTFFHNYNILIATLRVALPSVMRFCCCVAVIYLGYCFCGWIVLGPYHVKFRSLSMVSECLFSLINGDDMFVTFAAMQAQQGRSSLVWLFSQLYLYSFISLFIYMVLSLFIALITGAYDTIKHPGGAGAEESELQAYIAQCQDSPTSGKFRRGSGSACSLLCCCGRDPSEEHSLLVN
test-description: Cellular TRPML1 assay (FLIPR, GCaMP6f calcium read-out)
Type: cell-based
particulars: HEKT-REx/GCaMP6f/TRPML1 cells, FLIPR TETRA, kinetic response over 300 seconds; read-out: TRPML1 FLIPR pEC50 (converted)

These recorded examples may help you get a feel for the data.
compound | observed-measurement
O=C(Nc1cc(F)c(OC2CC3C[C@@H]3C2)c(F)c1)c1nc(N2CCC3CCCC32)oc1CC(F)(F)F (some centres unmarked) [Example 185] | 10 to 1000 nM
CCC1(CC)CN(c2nc(C(=O)Nc3cc(F)c(O[C@@H]4C[C@@H]5C[C@@H]5C4)c(Cl)c3)c(CC(F)(F)F)o2)C1 [Example 127] | 10 to 1000 nM
Cc1oc(N(C)C)nc1C(=O)Nc1ccc(N2CCCCC2)c(F)c1 [Example 117] | 10000 to 100000 nM
O=C(Nc1ccc(OC2CCCC2(F)F)c(O)c1)c1nc(N2CCCC2)oc1CC(F)(F)F (centres unmarked) [Example 86] | 1000 to 10000 nM
COC1(C)CN(c2nc(C(=O)Nc3cc(C)c(O[C@@H]4C[C@@H]5C[C@@H]5C4)c(F)c3)c(CCF)o2)C1 [Example 280] | 10 to 1000 nM
O=C(Nc1ccc(OC2CCCC2(F)F)c(F)c1)c1nc(N2C3CCC2CC3)oc1CC(F)(F)F (centres unmarked) [Example 9] | 1000 to 10000 nM

So for CC1(C)CN(c2nc(C(=O)Nc3cc(F)c(OC4CCCOC4)c(F)c3)c(CC(F)(F)F)o2)C1 (racemic) [Example 72] , the logged EC50 turned out to be 10 to 1000 nM

So for CCC1(CC)CN(c2nc(C(=O)Nc3cc(F)c4c(c3)CCN4C3CC4CC4C3)c(CC(F)(F)F)o2)C1 (centres unmarked) [Example 311] , the logged EC50 turned out to be 1000 to 10000 nM

So for O=C(Nc1ccc(OC2CCCOC2)c(F)c1)c1nc(N2CCCC2)oc1CC(F)(F)F (centres unmarked) [Example 66] , the logged EC50 turned out to be 1000 to 10000 nM

----------
Catalogue of EC50 values
test-system: TRPML1 (Homo sapiens, UniProt Q9GZU1)
Construct: expressed in transfected cells; host or cells: HEK T-REx cells stably expressing GCaMP6f and TRPML1
test-description: Cellular TRPML1 assay (FLIPR, GCaMP6f calcium read-out)
Type: cell-based
particulars: HEKT-REx/GCaMP6f/TRPML1 cells, FLIPR TETRA, kinetic response over 300 seconds; read-out: TRPML1 FLIPR pEC50 (converted)

These recorded examples may help you get a feel for the data.
molecule | observed-measurement
CCC1(CC)CN(c2nc(C(=O)Nc3cc(C)c(NC4CC5CC(C5)C4)c(F)c3)c(CC(F)(F)F)o2)C1 (stereo not drawn) [Example 192] | 1 to 10 µM
CCCc1oc(N2CCCC2)nc1C(=O)Nc1cc(F)c(O[C@@H]2C[C@@H]3C[C@@H]3C2)c(F)c1 [Example 274] | 0.01 to 1 µM
CCc1oc(N2CC(C)(OC)C2)nc1C(=O)Nc1cc(F)c(N2CC3CC(C3)C2)c(F)c1 [Example 258] | 1 to 10 µM

# EC50 measured on TRPML1 (Homo sapiens, UniProt Q9GZU1) for item CCc1oc(N2CC(C)(OC)C2)nc1C(=O)Nc1ccc(O[C@@H]2C[C@@H]3C[C@@H]3C2)c(C)c1 [Example 248] = 1 to 10 µM

# EC50 measured on TRPML1 (Homo sapiens, UniProt Q9GZU1) for item O=C(Nc1cc(F)c(OC2CC3C[C@H]3C2)c(F)c1)c1nc(N2CC3CCCC3C2)oc1CC(F)(F)F (stereo partly drawn) [Example 40] = 0.01 to 1 µM

# EC50 measured on TRPML1 (Homo sapiens, UniProt Q9GZU1) for item CCC1(CC)CN(c2nc(C(=O)Nc3cc(C)c(O[C@@H]4C[C@@H]5C[C@@H]5C4)c(O)c3)c(CC(F)(F)F)o2)C1 [Example 262] = 0.01 to 1 µM

# EC50 measured on TRPML1 (Homo sapiens, UniProt Q9GZU1) for item O=C(Nc1ccc(OC2CCCC2(F)F)c(F)c1)c1nc(N2CCC3(CC3)C2)oc1CC(F)(F)F (stereo not drawn) [Example 21] = 0.01 to 1 µM

# EC50 measured on TRPML1 (Homo sapiens, UniProt Q9GZU1) for item O=C(Nc1cc(F)c(O[C@@H]2C[C@@H]3C[C@@H]3C2)c(F)c1)c1nc(N2CCCCCC2)oc1CC(F)(F)F [Example 174] = 0.01 to 1 µM
